Molecular target: RibU W97Y labeled with 5,6,7triFW (Lactococcus lactis subsp. cremoris, UniProt D8KIE9, W97Y)
Construct: His10
Sequence (D8KIE9 whole entry W97Y): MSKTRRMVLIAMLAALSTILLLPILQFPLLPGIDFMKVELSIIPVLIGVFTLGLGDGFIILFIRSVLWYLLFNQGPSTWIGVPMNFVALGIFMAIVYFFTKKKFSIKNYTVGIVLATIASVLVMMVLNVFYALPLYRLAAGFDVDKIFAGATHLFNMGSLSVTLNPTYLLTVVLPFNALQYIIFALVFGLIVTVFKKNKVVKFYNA
Test: Fluorescence titration of RibU with RBF, 5,6,7triFW variant
assay_metric: pKd
Remember the convention: pKd equals -log10 of concentration in molar.

Ask | Fill in the blank: the reported pKd of Cc1cc2nc3c(=O)[nH]c(=O)nc-3n(C[C@H](O)[C@H](O)[C@H](O)CO)c2cc1C is ____.
Reply | 7.60
